Listed below are compounds with pIC50 for Cyclin-dependent kinase 4 (Homo sapiens, UniProt P11802), each taken from published literature.
pIC50: −log10 of the molar value.
Each entry gets False if its pIC50 stays under 8, and True if its pIC50 is 8 or above.

input: # check: pIC50 of O=C(Nc1ccc(N2CCNCC2)cc1)c1n[nH]cc1Nc1ncnc2[nH]ccc12 is greater than or equal to 8
output: True

input: # check: pIC50 of CC(C)(C)OC(=O)N1CCC(NC(=O)c2n[nH]cc2Nc2ncnc3[nH]ccc23)CC1 is greater than or equal to 8
output: False

input: # check: pIC50 of O=C(Nc1ccc(N2CCNCC2)cn1)c1n[nH]cc1Nc1ncnc2sccc12 is greater than or equal to 8
output: False

input: # check: pIC50 of O=C(Nc1ccc(C(=O)N2CCOCC2)cc1)c1n[nH]cc1Nc1ncnc2sccc12 is greater than or equal to 8
output: False

input: # check: pIC50 of O=C(NC1CCNCC1)c1n[nH]cc1Nc1ncnc2[nH]ccc12 is greater than or equal to 8
output: False

input: # check: pIC50 of C=CC(=O)Nc1cccc(Nc2nc(Nc3ccc(N4CCN(C)CC4)nc3OC)ncc2C(F)(F)F)c1 is greater than or equal to 8
output: False

input: # check: pIC50 of CN(C)C(=O)c1cc2cnc(Nc3ccc(CSCCCN=C=S)cc3)nc2n1C1CCCC1 is greater than or equal to 8
output: False

input: # check: pIC50 of O=C(Nc1ccc(N2CCNCC2)cc1)c1n[nH]cc1Nc1ncnc2sc3c(c12)CCC3 is greater than or equal to 8
output: True

input: # check: pIC50 of O=C(Nc1ccc(N2CCNCC2)cn1)c1n[nH]cc1Nc1ncnc2sc3c(c12)CCC3 is greater than or equal to 8
output: True

input: # check: pIC50 of O=C(Nc1ccc(N2CCNCC2)cn1)c1n[nH]cc1Nc1ncnc2sc3c(c12)CCCC3 is greater than or equal to 8
output: True

input: # check: pIC50 of O=C(Nc1ccc(N2CC3CC2CN3)cc1)c1n[nH]cc1Nc1ncnc2[nH]ccc12 (centres unmarked) is greater than or equal to 8
output: False

input: # check: pIC50 of O=C1Nc2ccccc2/C1=N/NC(=O)c1cc2ccccc2[nH]1 is greater than or equal to 8
output: False

input: # check: pIC50 of CN(C)C(=O)c1cc2cnc(Nc3ccc(S(=O)(=O)CCCCN=C=S)cc3)nc2n1C1CCCC1 is greater than or equal to 8
output: False

input: # check: pIC50 of O=C(Nc1ccccc1)c1n[nH]cc1Nc1ncnc2[nH]ccc12 is greater than or equal to 8
output: False

input: # check: pIC50 of CN1CCCN(c2cccc(NC(=O)c3n[nH]cc3Nc3ncnc4sccc34)c2)CC1 is greater than or equal to 8
output: False

input: # check: pIC50 of CN(C)C(=O)c1cc2cnc(Nc3ccc(CS(=O)(=O)CCCCCCCN=C=S)cc3)nc2n1C1CCCC1 is greater than or equal to 8
output: False
